# TARGET_OR_SYSTEM: plasma purified human antithrombin III (AT-III), as complex with unfractionated heparin
# TEST: ratio of K0.5 (lower limit) to Catalyst Biosciences WT FIXa, AT-III/UFH inhibition
RECORDED_ENDPOINT: K0.5-mut/K0.5-wt
Number only, no unit.

The cases that follow already have their K0.5-mut/K0.5-wt on record.
FIXa-D85N/K228N/R318Y/R338E/R403E/E410N (protein) chain 1: YNSGKLEEFVQGNLERECMEEKCSFEEAREVFENTERTTEFWKQYVDGDQCESNPCLNGGSCKDDINSYECWCPFGFEGKNCELNVTCNIKNGRCEQFCKNSADNKVVCSCTEGYRLAENQKSCEPAVPFPCGRVSVSQTSKLTR chain 2: VVGGEDAKPGQFPWQVVLNGKVDAFCGGSIVNEKWIVTAAHCVETGVNITVVAGEHNIEETEHTEQKRNVIRIIPHHNYNAAINKYNHDIALLELDEPLVLNSYVTPICIADKEYTNIFLKFGSGYVSGWGRVFHKGYSALVLQYLRVPLVDRATCLESTKFTIYNNMFCAGFHEGGRDSCQGDSGGPHVTEVEGTSFLTGIISWGEECAMKGKYGIYTKVSEYVNWIKNKTKLT = 517
FIXa-D104N/K106S/K247N/N249S/R318Y/R338E/R403E/E410N (protein) chain 1: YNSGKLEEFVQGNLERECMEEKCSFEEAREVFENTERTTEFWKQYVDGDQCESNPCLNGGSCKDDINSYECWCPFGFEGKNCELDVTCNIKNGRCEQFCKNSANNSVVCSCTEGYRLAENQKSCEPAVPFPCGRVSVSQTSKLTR chain 2: VVGGEDAKPGQFPWQVVLNGKVDAFCGGSIVNEKWIVTAAHCVETGVKITVVAGEHNIEETEHTEQNRSVIRIIPHHNYNAAINKYNHDIALLELDEPLVLNSYVTPICIADKEYTNIFLKFGSGYVSGWGRVFHKGYSALVLQYLRVPLVDRATCLESTKFTIYNNMFCAGFHEGGRDSCQGDSGGPHVTEVEGTSFLTGIISWGEECAMKGKYGIYTKVSEYVNWIKNKTKLT = 517
FIXa-Y155F/K228N/R318Y/R338E/R403E/E410N (protein) chain 1: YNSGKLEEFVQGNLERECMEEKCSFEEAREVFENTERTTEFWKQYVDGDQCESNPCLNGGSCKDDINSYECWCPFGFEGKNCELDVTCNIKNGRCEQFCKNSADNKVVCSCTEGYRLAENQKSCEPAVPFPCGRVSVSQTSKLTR chain 2: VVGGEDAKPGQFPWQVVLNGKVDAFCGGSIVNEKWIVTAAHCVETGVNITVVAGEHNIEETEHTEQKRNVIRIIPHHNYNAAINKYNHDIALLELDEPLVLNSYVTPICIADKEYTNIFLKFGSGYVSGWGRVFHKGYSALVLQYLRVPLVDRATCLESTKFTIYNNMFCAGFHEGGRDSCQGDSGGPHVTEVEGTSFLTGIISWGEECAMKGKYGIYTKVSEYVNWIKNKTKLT = 517
FIXa-R318Y/R338E/N346D/R403E/E410N (protein) chain 1: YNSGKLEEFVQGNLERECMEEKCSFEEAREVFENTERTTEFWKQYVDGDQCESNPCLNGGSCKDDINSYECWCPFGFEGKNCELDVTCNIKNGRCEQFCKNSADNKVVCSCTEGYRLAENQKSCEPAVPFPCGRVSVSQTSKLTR chain 2: VVGGEDAKPGQFPWQVVLNGKVDAFCGGSIVNEKWIVTAAHCVETGVKITVVAGEHNIEETEHTEQKRNVIRIIPHHNYNAAINKYNHDIALLELDEPLVLNSYVTPICIADKEYTNIFLKFGSGYVSGWGRVFHKGYSALVLQYLRVPLVDRATCLESTKFTIYDNMFCAGFHEGGRDSCQGDSGGPHVTEVEGTSFLTGIISWGEECAMKGKYGIYTKVSEYVNWIKNKTKLT = 517
FIXa-Y155F/R318Y/R338E/N346D/R403E/E410N (protein) chain 1: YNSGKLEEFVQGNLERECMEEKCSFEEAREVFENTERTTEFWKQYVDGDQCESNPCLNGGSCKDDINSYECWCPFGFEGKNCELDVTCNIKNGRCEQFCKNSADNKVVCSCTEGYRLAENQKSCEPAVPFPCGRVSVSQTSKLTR chain 2: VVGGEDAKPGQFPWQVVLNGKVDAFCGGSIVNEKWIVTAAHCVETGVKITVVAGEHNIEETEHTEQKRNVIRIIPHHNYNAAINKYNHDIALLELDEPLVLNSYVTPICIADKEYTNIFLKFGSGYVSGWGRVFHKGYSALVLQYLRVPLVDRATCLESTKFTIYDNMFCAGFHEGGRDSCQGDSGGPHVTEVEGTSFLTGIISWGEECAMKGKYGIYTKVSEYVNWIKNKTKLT = 517

Prompt: Entry FIXa-D104N/K106S/I251S/R318Y/R338E/R403E/E410N (protein) chain 1: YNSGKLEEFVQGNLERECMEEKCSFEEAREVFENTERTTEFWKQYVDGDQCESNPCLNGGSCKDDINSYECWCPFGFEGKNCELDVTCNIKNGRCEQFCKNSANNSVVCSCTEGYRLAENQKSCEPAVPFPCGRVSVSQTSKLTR chain 2: VVGGEDAKPGQFPWQVVLNGKVDAFCGGSIVNEKWIVTAAHCVETGVKITVVAGEHNIEETEHTEQKRNVSRIIPHHNYNAAINKYNHDIALLELDEPLVLNSYVTPICIADKEYTNIFLKFGSGYVSGWGRVFHKGYSALVLQYLRVPLVDRATCLESTKFTIYNNMFCAGFHEGGRDSCQGDSGGPHVTEVEGTSFLTGIISWGEECAMKGKYGIYTKVSEYVNWIKNKTKLT : reported K0.5-mut/K0.5-wt = ?
Response: 517

Prompt: Value lookup for K0.5-mut/K0.5-wt; key = FIXa-D104N/K106S/N260S/R318Y/R338E/R403E/E410N (protein) chain 1: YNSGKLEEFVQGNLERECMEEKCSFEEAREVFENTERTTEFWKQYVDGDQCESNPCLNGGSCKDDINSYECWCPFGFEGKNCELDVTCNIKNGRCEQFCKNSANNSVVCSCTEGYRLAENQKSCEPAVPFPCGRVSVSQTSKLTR chain 2: VVGGEDAKPGQFPWQVVLNGKVDAFCGGSIVNEKWIVTAAHCVETGVKITVVAGEHNIEETEHTEQKRNVIRIIPHHNYSAAINKYNHDIALLELDEPLVLNSYVTPICIADKEYTNIFLKFGSGYVSGWGRVFHKGYSALVLQYLRVPLVDRATCLESTKFTIYNNMFCAGFHEGGRDSCQGDSGGPHVTEVEGTSFLTGIISWGEECAMKGKYGIYTKVSEYVNWIKNKTKLT
Response: 517
